B1: Pre-mRNA-processing factor 40 homolog B, residues 274 to 332; numbered along this chain, Q6NWY9 (parent)
chain: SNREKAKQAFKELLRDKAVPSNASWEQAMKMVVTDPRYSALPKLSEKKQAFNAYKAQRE

Variants of: B1
Measurement description: abundance fitness (aPCA) (normalised: wild type 0, dead -1); higher = more abundant; growth selection in yeast, the domain comes from the species named
Measurement conditions: Homo sapiens
Assign condition met to entries whose abundance fitness meets or exceeds -0.3; assign condition not met to the rest.

Mutation label	Class name
A50T	condition not met
A53M	condition not met
K5P	condition not met
S24Y	condition not met
A6R	condition not met

Prompt: Record `E59R` ; criterion: abundance fitness no lower than -0.3. Met?
Completion: condition met

Prompt: Record `A50W` ; criterion: abundance fitness no lower than -0.3. Met?
Completion: condition not met

Prompt: Record `M31L` ; criterion: abundance fitness no lower than -0.3. Met?
Completion: condition met

Prompt: Record `V33S` ; criterion: abundance fitness no lower than -0.3. Met?
Completion: condition met

Prompt: Record `A23S` ; criterion: abundance fitness no lower than -0.3. Met?
Completion: condition not met

Prompt: Record `K43R` ; criterion: abundance fitness no lower than -0.3. Met?
Completion: condition met

Prompt: Record `L13T` ; criterion: abundance fitness no lower than -0.3. Met?
Completion: condition not met

Prompt: Record `S24R` ; criterion: abundance fitness no lower than -0.3. Met?
Completion: condition not met
